Taken from patent US6355799B1.

Listed below: Post-emerge Herbicidal Activity ECHCG values for each entry.
- Test system: barnyardgrass (Echinochloa crus-galli, ECHCG)
- test name: Post-emerge test, greenhouse herbicide activity screening
- Format: in vivo
- condition summary: 63 g ai/ha; phytotoxicity rating 0-100 (0 no damage, 100 complete death), 14 days after application

- molecule: "COc1c(Cl)cc(F)c(-n2c(=O)cc(C(F)(F)F)n(C)c2=O)c1N(C)C [Compound 1-11]"
  Post-emerge Herbicidal Activity ECHCG: 0
- molecule: "COc1c(Cl)cc(F)c(-n2c(=O)cc(C(F)(F)F)n(C)c2=O)c1NC(=O)c1cccc(C)c1 [2-23]"
  Post-emerge Herbicidal Activity ECHCG: 0
- molecule: "C=CC(=O)N(C(=O)C=C)c1c(OC)c(Cl)cc(F)c1-n1c(=O)cc(C(F)(F)F)n(C)c1=O [2-4]"
  Post-emerge Herbicidal Activity ECHCG: 0
- molecule: "COc1c(Cl)cc(F)c(-n2c(=O)cc(C(F)(F)F)n(C)c2=O)c1NC(C)=O [2-1]"
  Post-emerge Herbicidal Activity ECHCG: 0
- molecule: "COc1c(Cl)cc(F)c(-n2c(=O)cc(C(F)(F)F)n(C)c2=O)c1N=C(Cl)C(Cl)(Cl)Cl [Compound 1-30]"
  Post-emerge Herbicidal Activity ECHCG: 0
- molecule: "COc1c(Cl)cc(F)c(-n2c(=O)c([N+](=O)[O-])c(C(F)(F)F)n(C)c2=O)c1[N+](=O)[O-] [Compound 1-9]"
  Post-emerge Herbicidal Activity ECHCG: 70
- molecule: "C=C(C)C(=O)N(C(=O)C(=C)C)c1c(OC)c(Cl)cc(F)c1-n1c(=O)cc(C(F)(F)F)n(C)c1=O [2-6]"
  Post-emerge Herbicidal Activity ECHCG: 0
- molecule: "COc1c(Cl)cc(F)c(-n2c(=O)cc(C(F)(F)F)n(N)c2=O)c1N [Compound 1-13]"
  Post-emerge Herbicidal Activity ECHCG: 30
- molecule: "COc1c(Cl)cc(F)c(-n2c(=O)cc(C(F)(F)F)n(C)c2=O)c1NC(=O)c1ccc(C)cc1 [2-24]"
  Post-emerge Herbicidal Activity ECHCG: 70
- molecule: "COc1c(Cl)cc(F)c(-n2c(=O)cc(C(F)(F)F)n(C)c2=O)c1NC(=O)C(C)(C)C [2-3]"
  Post-emerge Herbicidal Activity ECHCG: 0
- molecule: "COc1c(Cl)cc(F)c(-n2c(=O)cc(C(F)(F)F)n(C)c2=O)c1NC(=O)C1CCCCC1 [2-19]"
  Post-emerge Herbicidal Activity ECHCG: 0
- molecule: "Cn1c(C(F)(F)F)cc(=O)n(-c2c(F)cc(Cl)c(OCc3ccccc3)c2N)c1=O [Compound 1-22]"
  Post-emerge Herbicidal Activity ECHCG: 0
- molecule: "Cn1c(C(F)(F)F)cc(=O)n(-c2c(N)cc(OC(F)F)cc2F)c1=O [Compound 1-51]"
  Post-emerge Herbicidal Activity ECHCG: 0
- molecule: "CCOC(=O)COc1c(Cl)cc(F)c(-n2c(=O)cc(C(F)(F)F)n(C)c2=O)c1N [Compound 1-59]"
  Post-emerge Herbicidal Activity ECHCG: 30
- molecule: "CCOC(=O)C(C)Nc1c(OC)c(Cl)cc(F)c1-n1c(=O)cc(C(F)(F)F)n(C)c1=O (centres unmarked) [Compound 1-55]"
  Post-emerge Herbicidal Activity ECHCG: 0
- molecule: "COc1c(Cl)cc(F)c(-n2c(=O)cc(C(F)(F)F)n(C)c2=O)c1NC(=O)c1ccc(C)c(C)c1 [2-32]"
  Post-emerge Herbicidal Activity ECHCG: 0
- molecule: "COc1c(Cl)cc(F)c(-n2c(=O)cc(C(F)(F)F)n(C)c2=O)c1N(C(=O)C1CC1)C(=O)C1CC1 [2-18]"
  Post-emerge Herbicidal Activity ECHCG: 0

----------
- Tested on: field corn (Zea mays L., var. Dekalb 535, CORN)
- test name: Pre-emerge test, crop safety
- Format: in vivo
- condition summary: 63 g ai/ha; pre-emerge; rated 14 days after application; 0 = no damage, 100 = complete death
Listed below: Pre-emerge crop damage CORN (phytotoxicity rating, scale 0-100) values for each entry.
measurement kind: Pre-emerge crop damage CORN (phytotoxicity rating, scale 0-100)

- compound: "COc1c(Cl)cc(F)c(-n2c(=O)cc(C(F)(F)F)n(C)c2=O)c1NC(=O)c1ccc(C)cc1"
  recorded result: 95
- compound: "COc1c(Cl)cc(F)c(-n2c(=O)cc(C(F)(F)F)n(C)c2=O)c1N(C(=O)C=C(C)C)C(=O)C=C(C)C"
  recorded result: 15
- compound: "COc1c(Cl)cc(F)c(-n2c(=O)cc(C(F)(F)F)n(C)c2=O)c1N=C(Cl)C(Cl)(Cl)Cl"
  recorded result: 0
- compound: "CCCc1ccc(C(=O)N(C(=O)c2ccc(CCC)cc2)c2c(OC)c(Cl)cc(F)c2-n2c(=O)cc(C(F)(F)F)n(C)c2=O)cc1"
  recorded result: 0
- compound: "CCOC(=O)CC(=O)Nc1c(OC(=O)CC(=O)OCC)c(Cl)cc(F)c1-n1c(=O)cc(C(F)(F)F)n(C)c1=O"
  recorded result: 0
- compound: "CCc1ccc(C(=O)Nc2c(OCC#N)c(Cl)cc(F)c2-n2c(=O)cc(C(F)(F)F)n(C)c2=O)cc1"
  recorded result: 0
- compound: "CCOc1c(Cl)cc(F)c(-n2c(=O)cc(C(F)(F)F)n(C)c2=O)c1N"
  recorded result: 60
- compound: "COc1c(Cl)cc(F)c(-n2c(=O)cc(C(F)(F)F)n(C)c2=O)c1NC(=O)c1ccc(C(C)(C)C)cc1"
  recorded result: 0
- compound: "CC(C)Oc1c(Cl)cc(F)c(-n2c(=O)cc(C(F)(F)F)n(C)c2=O)c1N"
  recorded result: 10
- compound: "COc1c(Cl)cc(F)c(-n2c(=O)cc(C(F)(F)F)n(C)c2=O)c1NS(=O)(=O)c1ccc(C)cc1"
  recorded result: 0
- compound: "CCOC(=O)C(C)Nc1c(OC)c(Cl)cc(F)c1-n1c(=O)cc(C(F)(F)F)n(C)c1=O (stereo not shown)"
  recorded result: 10
- compound: "C=CC(=O)N(C(=O)C=C)c1c(OC)c(Cl)cc(F)c1-n1c(=O)cc(C(F)(F)F)n(C)c1=O"
  recorded result: 0
- compound: "COc1c(Cl)cc(F)c(-n2c(=O)c(N)c(C(F)(F)F)n(C)c2=O)c1N"
  recorded result: 0

----------
Listed below: Pre-emerge Herbicidal Activity SORHA values for each entry.
- Test system: johnsongrass (Sorghum halepense, SORHA)
- test name: Pre-emerge test, greenhouse herbicide activity screening
- Type: in vivo
- condition summary: pre-emerge, rate 63 g ai/ha, phytotoxicity rating 0-100 at 14 days after application

- chem smiles: "COc1c(Cl)cc(F)c(N2C(=O)C3=C(CCCC3)C2=O)c1NC(=O)C=Cc1ccccc1"
  Pre-emerge Herbicidal Activity SORHA: 0
- chem smiles: "COc1c(Cl)cc(F)c(-n2nnn(CCCF)c2=O)c1NC(=O)COCc1ccccc1"
  Pre-emerge Herbicidal Activity SORHA: 20
- chem smiles: "CC(C)Oc1c(Cl)cc(Cl)c(-n2nnn(CCCF)c2=O)c1N"
  Pre-emerge Herbicidal Activity SORHA: 0
- chem smiles: "COc1c(Cl)cc(F)c(-n2ncc(C(F)(F)F)cc2=O)c1NC(=O)c1ccc2ccccc2c1"
  Pre-emerge Herbicidal Activity SORHA: 0

----------
Listed below: Pre-emerge Herbicidal Activity, phytotoxicity rating (0-100), SETVI values for each entry.
- Test system: green foxtail (Setaria viridis, SETVI)
- test name: Pre-emerge test, greenhouse herbicide activity screening
- Format: in vivo
- condition summary: 63 g ai/ha; rated 14 days after application; 0 = no damage, 100 = complete death
measurement kind: Pre-emerge Herbicidal Activity, phytotoxicity rating (0-100), SETVI

- chem smiles: "CCOC(=O)C(=O)Nc1c(OC)c(Cl)cc(F)c1-n1c(=O)cc(C(F)(F)F)n(C)c1=O"
  recorded result: 0
- chem smiles: "COc1c(Cl)cc(F)c(-n2c(=O)cc(C(F)(F)F)n(C)c2=O)c1NC(=O)c1ccc(Br)cc1"
  recorded result: 10
- chem smiles: "COc1c(Cl)cc(F)c(-n2c(=O)cc(C(F)(F)F)n(C)c2=O)c1NC(=O)c1cnc2ccccc2n1"
  recorded result: 100
- chem smiles: "Cn1c(C(F)(F)F)cc(=O)n(-c2c(F)cc(Cl)c(OC(F)F)c2NC(=O)c2ccc3ccccc3c2)c1=O"
  recorded result: 90
- chem smiles: "COc1c(Cl)cc(F)c(-n2c(=O)cc(C(F)(F)F)n(C)c2=O)c1NC(=O)C(C)=Cc1ccccc1"
  recorded result: 100
- chem smiles: "COc1c(Cl)cc(F)c(-n2c(=O)cc(C(F)(F)F)n(C)c2=O)c1NC(=O)c1ccc(OC(F)(F)F)cc1"
  recorded result: 60
- chem smiles: "COc1c(Cl)cc(F)c(-n2c(=O)cc(C(F)(F)F)n(C)c2=O)c1N(C(=O)C=Cc1ccccc1Cl)C(=O)C=Cc1ccccc1Cl"
  recorded result: 0
- chem smiles: "COc1c(Cl)cc(F)c(-n2c(=O)cc(C(F)(F)F)n(C)c2=O)c1NC(=O)c1ccc(C(F)(F)F)cc1"
  recorded result: 100
